target: human 20S proteasome, ChT-L peptidase; construct: purchased Enzo LifeSciences; assay: ChT-L peptidase activity of purified human 20S proteasome (Suc-LLVY-MCA); format: biochemical; conditions: latent human 20S proteasome
quantity: IC50 (µM)

1. CO[C@H]1C[C@@H]2CC[C@@H](C)[C@@](O)(O2)C(=O)C(=O)N2CCCC[C@H]2C(=O)O[C@H]([C@H](C)C[C@@H]2CC[C@@H](OC(=O)C(C)(CO)CO)[C@H](OC)C2)CC(=O)[C@H](C)/C=C(\C)[C@@H](O)[C@@H](OC)C(=O)[C@H](C)C[C@H](C)/C=C/C=C/C=C/1C ... 2.1
2. CO[C@H]1C[C@@H]2CC[C@@H](C)[C@@](O)(O2)C(=O)C(=O)N2CCCC[C@H]2C(=O)O[C@H]([C@H](C)C[C@@H]2CC[C@@H](O)[C@H](OC)C2)CC(=O)[C@H](C)/C=C(\C)[C@@H](O)[C@@H](OC)C(=O)[C@H](C)C[C@H](C)/C=C/C=C/C=C/1C ... 1.9
3. CO[C@H]1C[C@@H]2CC[C@@H](C)[C@@](O)(O2)C(=O)C(=O)N2CCCC[C@H]2C(=O)O[C@H]([C@H](C)C[C@@H]2CC[C@@H](OP(C)(C)=O)[C@H](OC)C2)CC(=O)[C@H](C)/C=C(\C)[C@@H](O)[C@@H](OC)C(=O)[C@H](C)C[C@H](C)/C=C/C=C/C=C/1C ... 2.9
4. CO[C@H]1C[C@@H]2CC[C@@H](C)[C@@](O)(O2)C(=O)C(=O)N2CCCC[C@H]2C(=O)O[C@H]([C@H](C)C[C@@H]2CC[C@@H](OCCO)[C@H](OC)C2)CC(=O)[C@H](C)/C=C(\C)[C@@H](O)[C@@H](OC)C(=O)[C@H](C)C[C@H](C)/C=C/C=C/C=C/1C ... 2.5
